Kindly supply the reported responders at 50 mg/kg values for the records listed here.
- Tested on: subcutaneously pentetrazol-injected model (scPTZ)
- assay-overview: Subcutaneously pentetrazol-injected model (scPTZ) test
- Type: in vivo, mice
- run-conditions: Mus musculus, po, 1 h, 50 mg/kg oral, Slc: ddY male mice, 3 per group, pentetrazol 85 mg/kg s.c. after 1 hour, observed 30 minutes for clonic convulsion; read-out: scPTZ (positive number/tested number) (converted)
Form entry: value (%) — number only.

Input: Bench note: what responders at 50 mg/kg did NC(=O)Cc1ccccc1-c1cccc(F)c1F [Example 20, 2-(2′,3′-difluorobiphenyl-2-yl)acetamide] show?
Output: 66.7

Input: Fill in: responders at 50 mg/kg of NC(=O)Cc1ccccc1-c1cc(F)ccc1Cl is ___
Output: 66.7

Input: Fill blank: measured responders at 50 mg/kg of the compound NC(=O)Cc1ccccc1-c1cccc(C(F)(F)F)c1 is ____.
Output: 0

Input: Would you mind telling me what responders at 50 mg/kg value was observed for NC(=O)Cc1ccccc1-c1cc(Cl)cc(Cl)c1 [Example 71, 2-(3′,5′-dichlorobiphenyl-2-yl)acetamide] ?
Output: 66.7

Input: Need responders at 50 mg/kg of NC(=O)C(O)c1ccccc1-c1cccc(F)c1 (single isomer, unassigned) [Example 211] , thanks.
Output: 66.7

Input: Sample NC(=O)C(O)c1ccc(F)cc1-c1ccccc1 (stereo not shown) — what was its responders at 50 mg/kg?
Output: 0

Input: Any idea what responders at 50 mg/kg was measured for NC(=O)Cc1ccccc1-c1cc(Cl)ccc1F ?
Output: 0

Input: What does the record list as responders at 50 mg/kg for NC(=O)Cc1ccccc1-c1cc(Cl)ccc1C(F)(F)F ?
Output: 66.7

Input: Return reported responders at 50 mg/kg; argument: NC(=O)Cc1ccccc1-c1cc(F)cc(F)c1F
Output: 66.7

Input: For the compound COC(C(=O)N(C)C)c1ccccc1-c1ccccc1 (stereo not shown) , what responders at 50 mg/kg is on record?
Output: 33.3

Input: Quick one: responders at 50 mg/kg for NC(=O)C(O)c1ccccc1-c1cc(F)cc(Cl)c1 (stereo not shown) ?
Output: 33.3

Input: Would you kindly share the measured responders at 50 mg/kg for NC(=O)Cc1ccc(F)cc1-c1ccc(F)cc1 ?
Output: 0

Input: Need responders at 50 mg/kg of CNC(=O)Cc1cc(C(F)(F)F)ccc1-c1ccccc1 , thanks.
Output: 33.3

Input: Query: responders at 50 mg/kg; subject: NC(=O)Cc1ccccc1-c1cc(OC(F)(F)F)ccc1F
Output: 33.3

Input: Fill blank: measured responders at 50 mg/kg of the compound CNC(=O)Cc1ccccc1-c1ccccc1C(F)(F)F is ____.
Output: 0

Input: May I ask what responders at 50 mg/kg has been recorded for NC(=O)Cc1ccc(F)cc1-c1ccccc1F [Example 41, 2-(2′,5-difluorobiphenyl-2-yl)acetamide] ?
Output: 66.7

Input: Reported responders at 50 mg/kg, compound CC(C(N)=O)c1ccccc1-c1ccccc1 (stereo not shown) [Example 56, 2-(Biphenyl-2-yl)propanamide] : ____
Output: 100

Input: Which responders at 50 mg/kg is reported for this compound? COC(C(N)=O)c1ccccc1-c1cccc(Cl)c1 (stereo not shown)
Output: 0

Input: Can you look up the measured responders at 50 mg/kg of NC(=O)C(O)c1ccc(F)cc1-c1cc(Cl)cc(Cl)c1 (stereo not shown) for me?
Output: 33.3
